Cited source: patent US7994276B2

target: HLA-A*0201 (Homo sapiens, UniProt P04439, D140Y/D185E/D98H/E176V/E277Q/G131W/G231S/I119V/I121R/I166T/I218V/L300P/L318F/N151K/N90K/P208A/P217A/Q86G/Q94H/R138H/R169H/T345S); test: ELISA-based HLA/peptide complex refolding assay, affinity to HLA-A*0201; format: binding; conditions: read-out: Dissociation constant (KD) to HLA-A*0201
pKd: −log10 of the molar value. Where no end group is shown, it is not given here.

| Chain | pKd |
| --- | --- |
| ILDQKINEV [ODC-001] | 9.70 |
| ALFVRLLALA [TGFBI-001] | 12.00 |
